assay: AlamarBlue cytotoxicity, RISE and nano-Ca@RISE, hFOB 1.19; assay type: cell-based, human; conditions: human, hFOB 1.19 osteoblast cells; hFOB 1.19; 35 μM; 72 h; read-out: Relative cell viability (% RCL)
quantity-kind: viability at 72 h, 35 µM (%)
Reply numerically in %, unit not repeated.

Query :: Sample O=P(O)(O)C(O)(Cc1cccnc1)P(=O)(O)O [RISE, Monosodium risedronate hemipentahydrate] — what was its viability at 72 h, 35 µM?
Result :: 100

---

tested on: normal osteoblast-like hFOB 1.19 cell line; assay: AlamarBlue cytotoxicity, ZOLE and nano-Ca@ZOLE, hFOB 1.19; type: cell-based, human; conditions: Homo sapiens, 72 h
quantity-kind: IC50 (µM)
Reply numerically in µM, unit not repeated.

Query :: Sample O=P(O)(O)C(O)(Cn1ccnc1)P(=O)(O)O [ZOLE, zoledronic acid] — what was its IC50?
Result :: 49

These measurements were taken from patent US20250296942A1.
